Test: Cytotoxicity MTT assay
Type: cell-based, Human
Details: human, HelaM cells, read-out: HELAM (222.125) CC50
Param label: returns class 1 when CC50 at 72 h < 7 µg/mL, returns class 0 otherwise, including exact equality.

compound: CC(C)Nc1ccc(/C=C/C(=O)N2CCC=C(c3ccccc3)CC2)cn1
label class: class 0
//
compound: CN1CC(=O)Nc2ncc(/C=C/C(=O)N3CCC=C(c4cccs4)CC3)cc2C1
label class: class 0
//
compound: O=C1CNCc2cc(/C=C/C(=O)N3CCC=C(c4ccccc4)CC3)cnc2N1
label class: class 0
//
compound: O=C1Nc2ncc(/C=C/C(=O)N3CCC=C(c4ccccc4)CC3)cc2CN2CCNCC12 (centres unmarked)
label class: class 0
//
compound: CC(=O)N1CC(=O)Nc2ncc(/C=C/C(=O)N3CCC=C(c4ccccc4)CC3)cc2C1
label class: class 0
//
compound: O=C(Nc1ccc(/C=C/C(=O)N2CCC=C(c3ccccc3)CC2)cn1)C1CCOC1 (centres unmarked)
label class: class 0
//
compound: COc1ccc(F)cc1C1=CCCN(C(=O)/C=C/c2cnc3c(c2)CN2CCN(C(C)=O)CC2C(=O)N3)CC1 (centres unmarked)
label class: class 0
//
compound: CC(=O)Nc1ccc(/C=C/C(=O)N2CCC=C(c3ccccc3)CC2)cn1
label class: class 0

Now, please, on to the next compound.
Incoming: Please state whether CC50 at 72 h is below 7 µg/mL for O=C(Nc1ccc(/C=C/C(=O)N2CCC=C(c3ccccc3)CC2)cn1)c1ccccc1
Outgoing: class 1
